The measured values listed here are drawn from patent US12545686B2.

test: Approximate solubility by incremental addition of solvent; format: physicochemical; conditions: ethyl acetate, organic solvent or mixture, thermodynamic from solid, room temperature
MEASURED PARAMETER: solubility

# input Specify reported solubility for the molecule shown: CN1CCN(C[C@H]2COc3cc4ncnc(Nc5cccc(Br)c5F)c4cc3O2)CC1 [Amorphous form]
# output > 100 mg/mL

---

test: Approximate solubility by incremental addition of solvent; format: physicochemical; conditions: TBME, organic solvent or mixture, thermodynamic from solid, room temperature
MEASURED PARAMETER: solubility

# input Specify reported solubility for the compound shown: CN1CCN(C[C@H]2COc3cc4ncnc(Nc5cccc(Br)c5F)c4cc3O2)CC1 [Amorphous form]
# output ~2000 µg/mL
